Biological target: α4β7 integrin on human cells (human, UniProt P13612 34-1032; P26010 20-798)
Assay: cell-based or functional assay
Numbered stars: 1 amine (or outer) side, 2 acyl side, 3 side chain; on linkers, the order of the positions; unused ones are H or OH. Bridge positions count the residues as written; N and C are the ends. Square brackets hold non-standard residues; d marks the D form. Ends that are not written are not given here. * marks the point of attachment. Phe(4-OMe) = COc1ccc(C[C@H](N[*:1])C(=O)[*:2])cc1; Phe(4-tBu) = CC(C)(C)c1ccc(C[C@H](N)C(=O)O)cc1; Bip = N[C@@H](Cc1ccc(-c2ccccc2)cc1)C(=O)O; 1Nal = N[C@@H](Cc1cccc2ccccc12)C(=O)O; 2Nal = N[C@@H](Cc1ccc2ccccc2c1)C(=O)O; NMeR = CN[C@@H](CCCNC(=N)N)C(=O)O; hPhe = N[C@@H](CCc1ccccc1)C(=O)O; Tic = O=C(O)[C@@H]1Cc2ccccc2CN1; β3hE = N[C@@H](CCC(=O)O)CC(=O)O; Cit = NC(=O)NCCC[C@H](N)C(=O)O; NMeK = CN[C@@H](CCCCN)C(=O)O; Pen = CC(C)(S)[C@H](N)C(=O)O; dNMeK = CN[C@H](CCCCN)C(=O)O; Isovaleryl = CC(C)CC(=O)*; Dab = NCC[C@H](N)C(=O)O
Hi there, I'd appreciate the recorded α4β7 cell (Hu) IC50 for every entry that follows.

Ac-[Pen][NMeR]SDTL[Pen]WE[Dab]-NH2 (disulfide 1-7 (inferred)) [SEQ ID NO 61] has a reported α4β7 cell (Hu) IC50 of > 1000 nM

α4β7 cell (Hu) IC50 recorded for this binder, Isovaleryl-[Pen][NMeR]SDTL[Pen][Phe(4-tBu)][b‑H‑E][dK]-NH2 (disulfide 1-7 (inferred)) [SEQ ID NO 177] , is > 50 nM

Reported α4β7 cell (Hu) IC50 ( Ac-[Pen][NMeR]SDTL[Pen][Bip][b‑H‑E][NMeK]-NH2 (disulfide 1-7 (inferred); also: homodimer via DIG) [SEQ ID NO 150] ) = ≤ 10 nM

Reported α4β7 cell (Hu) IC50 of Ac-[Pen][NMeR]SDTL[Pen]W[Cit][dK]-NH2 (disulfide 1-7 (inferred); also: homodimer linked by DIG) [SEQ ID NO 84] : > 10 nM

Per the record, Ac-[Pen][NMeR]SQIQ[Pen][Phe(4-tBu)][β3hE][dK]-NH2 (disulfide 1-7 (inferred); also: homodimer via IDA, Alexa-647 label on IDA) [SEQ ID NO 192] has α4β7 cell (Hu) IC50 of > 10000 nM

Form: binder = Ac-[Pen][NMeR]SDTL[Pen][2Nal][dE][dK]-NH2 (disulfide 1-7 (inferred); also: homodimer via DIG linker) [SEQ ID NO 33] ; α4β7 cell (Hu) IC50 = > 10 nM

Item: Ac-[Pen][NMeR]SDTL[Pen][Tic][dE][dK]-NH2 (disulfide 1-7 (inferred); also: homodimer linked by DIG) [SEQ ID NO 80] | α4β7 cell (Hu) IC50: > 50 nM

Form field α4β7 cell (Hu) IC50, entry [Pen][NMeR]SDTL[Pen][2Nal]E (disulfide 1-7 (inferred); not fully specified (bridges); printed as Cyclo-[Pen-(N-Me-R)-S-D-T-L-Pen-(2-Nal)-E], disulfide) [SEQ ID NO 143] : > 10000 nM

Measured α4β7 cell (Hu) IC50 of Ac-[Pen][NMeR]SDTLC[Tic][dE][dK]-NH2 (disulfide 1-7 (inferred); also: homodimer linked by DIG) [SEQ ID NO 93] : > 500 nM

Form field α4β7 cell (Hu) IC50, entry Ac-[Pen][NMeR]SDTL[Pen]W[Tic][dK]-NH2 (disulfide 1-7 (inferred); also: dimer via DIG) [SEQ ID NO 109] : > 100 nM

Noted for XRSDTLXW (Ac-Pen-(N-Me-R)-S-D-T-L-Pen-W-OH; disulfide) [SEQ ID NO 127] : its α4β7 cell (Hu) IC50 reads > 100 nM

The binder Ac-[Pen][NMeR]SDTL[Pen][2Nal][dE][dNMeK]-NH2 (disulfide 1-7 (inferred)) [SEQ ID NO 13] showed α4β7 cell (Hu) IC50 equal to > 100 nM

The binder Ac-[Pen][NMeR]SDTL[Pen]W[dE][Dab]-NH2 (disulfide 1-7 (inferred)) [SEQ ID NO 56] showed α4β7 cell (Hu) IC50 equal to > 500 nM

Sure, the documented α4β7 cell (Hu) IC50 for Ac-[Pen][NMeR]SDTL[Pen][1Nal][dR][dK]-NH2 (disulfide 1-7 (inferred); also: homodimer via DIG) [SEQ ID NO 114] is > 100 nM

Value of measured α4β7 cell (Hu) IC50 for the entry Ac-[Pen][NMeR]SDTL[Pen]WN[dK]-NH2 (disulfide 1-7 (inferred); also: homodimer linked by DIG) [SEQ ID NO 83] : > 50 nM

α4β7 cell (Hu) IC50 in this record for Ac-[Pen][NMeR]SDTL[Pen][dF]E[dK]-NH2 (disulfide 1-7 (inferred); also: homodimer via DIG linker) [SEQ ID NO 30] : > 100 nM

Entry Ac-[Pen][NMeR]SDTL[Pen][Phe(4-OMe)][dE][dK]-NH2 (disulfide 1-7 (inferred); also: dimer via DIG) [SEQ ID NO 103] — recorded α4β7 cell (Hu) IC50 = > 25 nM

Entry Ac-[Pen][NMeR]SDTL[Pen][hPhe]E[dK]-NH2 (disulfide 1-7 (inferred); also: homodimer via DIG linker) [SEQ ID NO 45] , α4β7 cell (Hu) IC50 reported as > 25 nM
